test: in vitro; conditions: PAMPA, pH 7.4, permeability, PBS pH 7.4, 10 μM, 6 h
Below, each of the compounds is paired with its reported Papp value.

COMPOUND | Papp [×10⁻⁶ cm/s]
COc1cc(C=C2C(=O)NC(=O)NC2=O)ccc1O [2c] | 0.84
O=C1NC(=O)C(=C/C=C/c2ccccc2)C(=O)N1 [2i] | 5.75
O=C1NC(=O)C(=Cc2ccc(-c3ccccc3F)[nH]2)C(=O)N1 [2h] | 1.54

* * *

Below, each of the molecules is paired with its reported activity at 25 µM value.
target: LbDHODH (Leishmania braziliensis, UniProt E9AI53); assay: biochemical; settings: 0 h, pH 8.15, read-out: LbDHODH Activity±SD (%)
Sequence (E9AI53 entry or part of it): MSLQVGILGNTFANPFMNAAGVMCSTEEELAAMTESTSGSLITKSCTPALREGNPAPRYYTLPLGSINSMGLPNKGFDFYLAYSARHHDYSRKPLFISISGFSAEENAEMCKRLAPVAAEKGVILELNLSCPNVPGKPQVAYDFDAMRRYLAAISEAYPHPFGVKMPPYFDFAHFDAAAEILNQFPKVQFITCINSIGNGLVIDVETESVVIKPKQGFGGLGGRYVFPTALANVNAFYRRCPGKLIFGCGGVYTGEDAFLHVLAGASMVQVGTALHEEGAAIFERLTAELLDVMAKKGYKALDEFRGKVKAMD

MOLECULE | activity at 25 µM [%]
O=C1NC(=O)C(=Cc2ccc(N3CCOCC3)cc2[N+](=O)[O-])C(=O)N1 [2e] | 22
O=C1NC(=O)C(=Cc2ccccc2)C(=O)N1 [2a] | 60
O=C1NC(=O)C(=Cc2ccc(O)c([N+](=O)[O-])c2)C(=O)N1 [2d] | 11
O=C1NC(=O)C(=C/C=C/c2ccccc2)C(=O)N1 [2i] | 7
COc1cc(C=C2C(=O)NC(=O)NC2=O)ccc1O [2c] | 22
O=C1NC(=O)C(=Cc2ccc(-c3ccccc3)cc2)C(=O)N1 [2f] | 83
O=C1NC(=O)C(=Cc2cccc(O)c2)C(=O)N1 [2g] | 82
O=C1NC(=O)C(=Cc2ccc(C(=O)O)cc2)C(=O)N1 [2b] | 72

Source: paper PMC12481576
